molecular target: T1, recombinant human CFD mutant 1 (R157A, R207A), His-tagged (human, UniProt P00746 26-253); experiment: SPR MX96
T1 construct: positions are linear positions in the mature protein; also called rhCFD-mut1-His; Mut1
T1 sequence (P00746 26-253 R182A/R232A limits assumed): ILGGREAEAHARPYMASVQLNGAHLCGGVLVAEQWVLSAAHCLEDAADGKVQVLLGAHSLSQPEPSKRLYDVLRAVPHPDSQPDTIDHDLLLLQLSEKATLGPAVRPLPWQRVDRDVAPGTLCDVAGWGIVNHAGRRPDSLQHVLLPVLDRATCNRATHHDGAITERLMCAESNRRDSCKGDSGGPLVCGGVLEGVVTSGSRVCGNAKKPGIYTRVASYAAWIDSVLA
quantity: pKd
Give bare numbers, as −log10 of the molar value.

Solved cases below.
KCD077 (antibody, V domains shown) VH: EVQLQQSGAELVRPGALVKLSCKASGFNIKDYYMHWVKQRPEQGLEWIGWIDPENGHTIYDPRFQGKATITADTSSNTAYLQLSSLTSEDTAVYYCSRGLLGFAYWGQGTLVTVSA VL: DIVMTQSQKFMSTSVGDRVSVTCKASQNVGTNVAWYQQKPGQSPKALIYTASYRYSGVPDRFTGSGSGTDFTLTISNVQSEDLAEYFCQQYNSYPHMYTFGGGTKLEIK
7.89
KCD036 (antibody, V domains shown, chimeric) VH: EVQLQQSGPELVKPGASMKISCKASGYSFTGYTMTWVKQSHGKNLEWIGLINPYNGGTNYNQKFKGKATFTVDKSSSTAYMELLSLTSEDSAVYYCARRHYGSSWDYWGQGTTLTVSS VL: DIKLTQSPSSMYASLGERVTITCKASQDINTYLSWFQQKPGKSPKTLIYRANRLVDGVPSRFSGSGSGQDYSLTISSLEYEEMGIYYCLQYDEFPYTFGGGTKLEIK
7.10
KCD039 (antibody, V domains shown) VH: EVQLQQSGPEMVKPGASMKISCKASGYSFADYTLNWVKQSHGKSLEWIGLINPYNGGTSYNQKFMGKATLTVDKSSSTAYMELLSLTSEDSAVYYCTRWGTYSHNYDYAMDYWGQGTSVTVSS VL: DVVMTQTPLSLSVSLGDQASISCRSSQSLVHSNGNTYLYWYLQKPGQSPKLLIYKVSNRFSGITDRFSGSGSGTDFTLKISRVEAEDLGVYFCSQSTHVPPFTFGSGTKLEIK
7.15
KCD220 (antibody, V domains shown, chimeric) VH: QVQLQQSGAELMEPGASVKLSCKATGYTFTGYWIEWVKQRPGHGLEWIGETLPGSDSNNYNEKFKGKATFTADTSSNTAYMQLSSLTTEDSAIYYCARDYSNYWYFDVWGTGTTVTVSS VL: DIQMTQTTSSLSASLGDRVTISCRASQDISNYLNWYQQKPDGTVKLLIYYTSNLHSGVPSRFSGSGSGTDYSLTISNLEQEDIATYFCQQDSKHRTFGGGTKLEIK
10.54

# input for lookup
Req: Tell me its pKd given KCD139 (antibody, V domains shown) VH: EVQLQQSGAELVRPGSSVKMSCKTSGYTFTSYGINWVKQRPGQGLEWIGYIYIANGYTENNEKFKGKAKLTSDISSSTAYMQLSSLTSEDSAIYFCARRFDYAGALDYWGQGTSVTVSS VL: DIVLTQSPASLAVSLGQRATISCRASESVDSYGNSFMHWYQQKPGQPPKLLIHRASNLESGIPARFSGSGSRTDFTLTINPVEADDVAIYYCQQTNDDPYTFGGGTNLEIK as the entry.
Resp: 8.46
